B1: TPR 5TU (parent)
chain: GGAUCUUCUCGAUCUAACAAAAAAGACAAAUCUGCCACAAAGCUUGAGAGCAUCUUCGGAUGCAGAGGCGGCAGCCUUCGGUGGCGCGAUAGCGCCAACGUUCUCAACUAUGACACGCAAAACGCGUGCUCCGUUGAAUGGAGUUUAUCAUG

Variants of: B1
Assay: polymerase ribozyme fitness, log enrichment relative to wild type (log ratio); higher = more active; in vitro selection for triplet polymerase activity
Variants at the floor of the assay were thinned out.
Measurement Label: polymerase ribozyme fitness (log ratio)
The answer should be written as a number, with no unit following it.

query: Respond only with polymerase ribozyme fitness (log ratio) recorded for C8A U53A G81C C85G C108U A138G A147G A150U G152U
result: -3.5

query: Provide only the value of recorded polymerase ribozyme fitness (log ratio) for C57A G65A G84U A120G
result: -3.08

query: Using known records, supply polymerase ribozyme fitness (log ratio) for A40U C57G C105A
result: -0.98

query: Please report polymerase ribozyme fitness (log ratio) for the following variant: G83A C95U A106C A107G
result: -3.5

query: // fetch polymerase ribozyme fitness (log ratio) given entry C5U A12U G84U
result: -1.92
